system: LXRb:RXRa (NR concentration 270 nM, RXRa partner concentration 90 nM); assay: PBM binding z-score (relative to random genomic background probes); higher = stronger binding; sequences stand for … in GC…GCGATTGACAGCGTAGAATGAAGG
Quick rule for you: PBM binding z-score at 1 or higher means yes, lower means no.

>>> assigned_label("CCTGCTAGGTGAATGGTCAGCTAAAGCAGCTCGC")
"no"
>>> assigned_label("TAGCCTAGGTCAGGCGGGCCAGTATAGTGTCGGC")
"no"
>>> assigned_label("GCTTGTAGATCAAGGTTAGGAAAGACTAAGCTAA")
"no"
>>> assigned_label("ATATGTAGGTTAAGGGTCATTCCGGTTGGTTCGC")
"yes"
>>> assigned_label("TGTCAAAGTTCAAGGGTAACGTAAGTATCCACAC")
"yes"
>>> assigned_label("CCTAATGGGCCAAGGTCATTGATCAGTCAAAGCA")
"yes"
>>> assigned_label("TCTAGATGGTCACGGAGGTCACACACGACGGGTA")
"yes"
>>> assigned_label("CCTACTGGGCCCCGAAAGGTCATTGATTCAGTGA")
"yes"
>>> assigned_label("ATACCAAGGAGATCGTGAGGTCGTTGATACTAAC")
"no"
>>> assigned_label("CCTGCTAGGTCAATGGTAAGCTAAAGCAGCTCGC")
"yes"
>>> assigned_label("AATACAGGATCATCGTAGGCCAGAGTACGCACAG")
"no"
>>> assigned_label("TATACATGGTCAAAGGCCAGAGTACGAATGTCGA")
"no"
>>> assigned_label("ATCTCTAGGTAAAGATAGTTCAGTTAATGCAAAT")
"yes"
>>> assigned_label("CCTCGGAGGACAGAAGGTCGGAGCTGTCCGCTTT")
"no"
>>> assigned_label("CGAACTAGGTCATTGACAGGACAGTGAGTAGTAA")
"yes"
>>> assigned_label("ACTATAAGTTGACTTAGGGCAACCGATACGACGC")
"no"
>>> assigned_label("AGTCAAAGTTCACAAGGTAACGTAAGATTCAGCT")
"yes"
>>> assigned_label("AGAATGAGGTTATTAAGATCAGAGAATTGCGGTC")
"yes"
>>> assigned_label("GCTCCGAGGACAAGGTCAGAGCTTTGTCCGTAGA")
"yes"
>>> assigned_label("ATATGTAGGTTAAGGGTCATTGAGGTTGGTTCGC")
"yes"
>>> assigned_label("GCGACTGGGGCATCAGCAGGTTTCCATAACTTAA")
"no"
>>> assigned_label("GCTTACGGGTCAACGGTTATAGCATGAATAGAAT")
"yes"
>>> assigned_label("TCTTGTAGATCAAAAGTTAAGAAAGCCGAAGCCT")
"no"
>>> assigned_label("TCTTGTAGATCAACAGGAGGTTAGGAAAGATCGA")
"no"
>>> assigned_label("ATCTCTAGGTAACCAAGTTGAGTGAATGCCGAAC")
"no"
>>> assigned_label("CCGACTGGGGCATAAGGTGACCATAAGCCAGCCC")
"no"
>>> assigned_label("ATCTCTCGGTAAGACTCAGTTCAGTGAAGAACGC")
"no"
>>> assigned_label("ACTATTAGTTGAGACGAGTGCAACCGATAGGTTG")
"no"
>>> assigned_label("ATCTCTAGGTAACTAGTTCAGTGAAAGAGAGGAC")
"no"
>>> assigned_label("CCTAGCAGGCCAGGGTCACACAAGCATTTCGCTT")
"yes"

* * *

system: PXR homodimer (NR concentration 270 nM); test: PBM binding z-score (relative to random genomic background probes); higher = stronger binding; sequences stand for … in GC…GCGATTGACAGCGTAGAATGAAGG
Quick rule for you: PBM binding z-score at 0.6 or higher means true (1), lower means false (0).

>>> assigned_label("CCTACTGGCCCAAGGTCATTGATCAGTCAAAGCA")
"true (1)"
>>> assigned_label("ATCTGTAGGTAAAGTTCAGTGAAAGATCGATAGA")
"true (1)"
>>> assigned_label("AGACTGAGGTTACCAAAGATCAGGGAAACGCTTG")
"false (0)"
>>> assigned_label("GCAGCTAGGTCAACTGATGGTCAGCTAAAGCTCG")
"false (0)"
>>> assigned_label("TCTCGGAGGACACGAAAGGTCAGACCTCGACATC")
"false (0)"
>>> assigned_label("TAGCCTGGGTCATTCAGGGGCCAGTATAGAAAGC")
"false (0)"
>>> assigned_label("TCTTGTATATCAATAGAGGTTAAGAAAGTGCGCT")
"false (0)"
>>> assigned_label("GATACAGGGCCAAGGCCAGAGTACGCGTATTGAT")
"false (0)"
>>> assigned_label("TTGCCTAGGTCATGGGCCAGTATACCACGCGAAC")
"false (0)"
>>> assigned_label("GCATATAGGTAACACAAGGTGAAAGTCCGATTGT")
"false (0)"
>>> assigned_label("ACTTGCAGGCCAAGGGTCACTCAAGATTAGTCCG")
"false (0)"
>>> assigned_label("CCTCACGGGTCACTCCAGGTTATAGCATCGGAGT")
"false (0)"
>>> assigned_label("CGGCCTAGGTCAGGGCCAGTATAGGAGGAACGTT")
"false (0)"
>>> assigned_label("ACAGACGGGTGAGTGAAGGTAACTCAGCTGGACG")
"false (0)"
>>> assigned_label("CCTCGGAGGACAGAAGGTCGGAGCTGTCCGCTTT")
"false (0)"
>>> assigned_label("TCTATTTGTTGAAGGGCAACCGACGAGTCCGTTT")
"true (1)"
>>> assigned_label("ATCGAGAGGTCGTGAGGTGAGTATACAGAAAGGC")
"false (0)"
>>> assigned_label("CGTCCAAGGTCAAACGTCAGTGAAGAGATGACGG")
"true (1)"
>>> assigned_label("AGAATGAGGTTAAGATCGGGGAAACAGAATACAT")
"true (1)"
>>> assigned_label("GCTAGTTGGTAAGTAAAAGGTCACACACCGGTCG")
"true (1)"
>>> assigned_label("CAGCCTAGGTCAGGGACAGTATAGGAGGAACGTT")
"false (0)"
>>> assigned_label("CCTTACGGGTCACTCCAGGTTATAGCATCGGAGT")
"false (0)"
>>> assigned_label("TACACAGGGTCAAAGGCCAGAGTACGAATGTCGA")
"false (0)"
>>> assigned_label("TCATATAGGGAAATGCTAGGTGAAAGTCCGATCT")
"false (0)"
>>> assigned_label("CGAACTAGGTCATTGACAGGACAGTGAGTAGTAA")
"false (0)"
>>> assigned_label("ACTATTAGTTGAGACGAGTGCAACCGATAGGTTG")
"true (1)"
>>> assigned_label("CAAACTAGATCACGAAAGGTCAAAGTCGAATGAC")
"true (1)"
>>> assigned_label("TGAATGAGGTTATAAGATCAAGGAACGTTGCAAA")
"false (0)"

* * *

system: PPARg DBDmut IVT, anti-PPARg (DBD mutation: PPARg1 K132A/R137A, NR concentration 270 nM); experiment: PBM binding z-score (relative to random genomic background probes); higher = stronger binding; sequences stand for … in GC…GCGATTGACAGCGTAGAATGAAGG
Each entry below carries its recorded PBM binding z-score.
measured parameter: PBM binding z-score

>>> readout_value("ACTAGCAGGACAAGTTTGGGTCACTCAAACAAAG")
-0.22
>>> readout_value("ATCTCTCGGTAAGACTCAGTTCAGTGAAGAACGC")
0.946
>>> readout_value("ATCTAAAGGTCGAGGTGAGTATAGAGAAAGGGAA")
1.16
>>> readout_value("CGTCAGAGTTCAACTAAGGTAACGTAAAGCACGC")
0.416
>>> readout_value("CCAACTAGGTCACGAAAGGTCAAAGTCGAATGAC")
0.869
>>> readout_value("GCGACTGGGGCAAAGCAGGTTAACATAAGGTTGG")
-0.874
>>> readout_value("TTTCGGAGGACACGAAGGTCAGAGCTTTCCAGAG")
-0.892
>>> readout_value("CTCGAAAGGTCGGTTCAGGTGAGTATACGGATAA")
0.134
>>> readout_value("TCGAGTAGGTAAGGGGCATTCAGAATGGCGTCGA")
-1.03
>>> readout_value("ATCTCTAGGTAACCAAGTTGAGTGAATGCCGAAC")
1.26
>>> readout_value("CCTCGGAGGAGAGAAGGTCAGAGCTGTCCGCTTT")
-1.71

* * *

system: PPARa:RXRa (NR concentration 270 nM, RXRa partner concentration 90 nM); test: PBM binding z-score (relative to random genomic background probes); higher = stronger binding; sequences stand for … in GC…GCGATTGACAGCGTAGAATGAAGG
measured parameter: PBM binding z-score

>>> readout_value("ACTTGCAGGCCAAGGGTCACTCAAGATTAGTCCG")
4.99
>>> readout_value("TCTTGTAGATCAATCGAGGTTAAGAAAGTGCGCT")
1.73
>>> readout_value("CCTTACGGGTCACGCCAGGTTATAGCATCGGAGT")
5.57
>>> readout_value("ACTAGCAGGCCAAGGGGCACTCAAGATTAGTCCG")
1.63
>>> readout_value("TCGAGTAGGTTAGTCGGGGCATTTAGCCAACATA")
0.819
>>> readout_value("CGAACGAGGGCATGAGTTGATAGAAAATGCCGAT")
1.58
>>> readout_value("AGAATGAGGTTACCAAAGATGAGGGAAACGCTTG")
3.26
>>> readout_value("ATCGAAAGGTCGAAGGTAAGTATACCCACCCGAA")
4.25
>>> readout_value("ACTATTAGTTGAGACGAGGGCAAGCGATAGGTTG")
0.257
>>> readout_value("CGAACTAGGGCATGAGTTGATAGCAAATGCCGAT")
2.34
>>> readout_value("ACCGAAAGGTCGAGGTGAGTATAGAGAAAGGGAA")
4.71
>>> readout_value("AGAACGAGGTTAAGATCAGGGAAACAGAATACAT")
3.4
